measuredTarget: thrombin (IIa) (Homo sapiens)
Construct: 0.5 nM human thrombin (IIa)
assayProtocol: Fluorogenic enzyme assay (Example 5)
Format: biochemical
measurementConditions: Table 7
measuredAttribute: kcat, IIa (s⁻¹)

Br.CCCCCNS(=O)(=O)c1cccc2cc(NC(=O)[C@H](CCCNC(=N)N)NC(=O)OCc3ccccc3)ccc12 [(N^α -Z)ArgANSNR1 R2; H; C5 H11] ... 0.01
Br.CC(C)(C)NS(=O)(=O)c1cccc2cc(NC(=O)[C@H](CCCNC(=N)N)NC(=O)OCc3ccccc3)ccc12 [(N^α -Z)ArgANSNR1 R2; H; t-C4 H9] ... 0.02
Br.N=C(N)NCCC[C@H](NC(=O)OCc1ccccc1)C(=O)Nc1ccc2c(S(=O)(=O)NC3CCCCC3)cccc2c1 [(N^α -Z)ArgANSNR1 R2; H; cyclo-C6 H11] ... 0.03
Br.CN(C)S(=O)(=O)c1cccc2cc(NC(=O)[C@H](CCCNC(=N)N)NC(=O)OCc3ccccc3)ccc12 [(N^α -Z)ArgANSNR1 R2; CH3; CH3] ... 0.01
Br.CNS(=O)(=O)c1cccc2cc(NC(=O)[C@H](CCCNC(=N)N)NC(=O)OCc3ccccc3)ccc12 [(N^α -Z)ArgANSNR1 R2; H; CH3] ... 0.04
Br.CC(C)CNS(=O)(=O)c1cccc2cc(NC(=O)[C@H](CCCNC(=N)N)NC(=O)OCc3ccccc3)ccc12 [(N^α -Z)ArgANSNR1 R2; H; i-C4 H9] ... 0.05
Br.CC(C)NS(=O)(=O)c1cccc2cc(NC(=O)[C@H](CCCNC(=N)N)NC(=O)OCc3ccccc3)ccc12 [(N^α -Z)ArgANSNR1 R2; H; i-C3 H7] ... 0.03
Br.N=C(N)NCCC[C@H](NC(=O)OCc1ccccc1)C(=O)Nc1ccc2c(S(=O)(=O)NCc3ccccc3)cccc2c1 [(N^α -Z)ArgANSNR1 R2; H; benzyl] ... 0.07
Br.CCCNS(=O)(=O)c1cccc2cc(NC(=O)[C@H](CCCNC(=N)N)NC(=O)OCc3ccccc3)ccc12 [(N^α -Z)ArgANSNR1 R2; H; C3 H7] ... 0.04

====

Attribute: TIME TO 10% HYDROLYSIS (HOURS), Xa
measuredTarget: factor Xa (Homo sapiens)
Sequence (P00742 235-488 limits assumed): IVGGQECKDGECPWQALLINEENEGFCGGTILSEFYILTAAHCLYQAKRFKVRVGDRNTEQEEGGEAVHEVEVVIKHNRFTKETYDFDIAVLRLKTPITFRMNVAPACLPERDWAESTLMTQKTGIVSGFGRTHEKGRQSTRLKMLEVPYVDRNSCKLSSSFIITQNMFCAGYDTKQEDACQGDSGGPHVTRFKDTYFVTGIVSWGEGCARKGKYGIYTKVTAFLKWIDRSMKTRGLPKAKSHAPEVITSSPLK
Sequence (P00742 41-179 limits assumed): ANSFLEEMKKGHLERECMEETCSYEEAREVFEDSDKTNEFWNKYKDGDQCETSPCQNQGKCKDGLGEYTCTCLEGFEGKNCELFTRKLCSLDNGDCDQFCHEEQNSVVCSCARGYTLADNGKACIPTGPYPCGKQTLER
assayProtocol: Fluorogenic enzyme assay (Example 5)
Type: biochemical
measurementConditions: 10 nM enzyme, substrate 1 μM
measuredAttribute: TIME TO 10% HYDROLYSIS (HOURS), Xa (h)

CCCNS(=O)(=O)c1cccc2cc(NC(=O)[C@H](CCCNC(=N)N)NC(=O)[C@H](Cc3ccccc3)NC(=O)[C@@H]3CCCN3C(=O)OC(C)(C)C)ccc12 ... 9
Cc1ccc(S(=O)(=O)NCC(=O)N2CCC[C@H]2C(=O)N[C@@H](CCCNC(=N)N)C(=O)Nc2ccc3c(S(=O)(=O)NCC(C)C)cccc3c2)cc1 ... 0.05
CC(C)C[C@@H](NC(=O)OCc1ccccc1)C(=O)N1CCC[C@H]1C(=O)N[C@@H](CCCNC(=N)N)C(=O)Nc1ccc2c(S(=O)(=O)N3CCCCC3)cccc2c1 ... 0.02
CCCNS(=O)(=O)c1cccc2cc(NC(=O)[C@H](CCCNC(=N)N)NC(=O)[C@H](Cc3ccccc3)NC(=O)[C@@H]3CCCN3)ccc12.Cl.Cl ... 1.25
Br.Br.CC(C)C[C@@H](N)C(=O)N1CCC[C@H]1C(=O)N[C@@H](CCCNC(=N)N)C(=O)Nc1ccc2c(S(=O)(=O)N3CCCCC3)cccc2c1 ... 0.4

====

measuredTarget: UniProt:P00742
assayProtocol: Fluorogenic enzyme assay (Example 5)
Format: biochemical
measurementConditions: Table 9
measuredAttribute: Km (µM)

CCCNS(=O)(=O)c1cccc2cc(NC(=O)[C@H](CCCNC(=N)N)NC(=O)[C@H](Cc3ccccc3)NC(=O)[C@@H]3CCCN3C(=O)OC(C)(C)C)ccc12 ... 230
Cc1ccc(S(=O)(=O)NCC(=O)N2CCC[C@H]2C(=O)N[C@@H](CCCNC(=N)N)C(=O)Nc2ccc3c(S(=O)(=O)NCC(C)C)cccc3c2)cc1 ... 35.3
CCCNS(=O)(=O)c1cccc2cc(NC(=O)[C@H](CCCNC(=N)N)NC(=O)[C@H](Cc3ccccc3)NC(=O)[C@@H]3CCCN3)ccc12.Cl.Cl ... 667
CC(C)C[C@@H](NC(=O)OCc1ccccc1)C(=O)N1CCC[C@H]1C(=O)N[C@@H](CCCNC(=N)N)C(=O)Nc1ccc2c(S(=O)(=O)N3CCCCC3)cccc2c1 ... 26.3
Br.Br.CC(C)C[C@@H](N)C(=O)N1CCC[C@H]1C(=O)N[C@@H](CCCNC(=N)N)C(=O)Nc1ccc2c(S(=O)(=O)N3CCCCC3)cccc2c1 ... 400

====

measuredTarget: urokinase (u-PA) (Homo sapiens, UniProt P00749)
assayProtocol: Fluorogenic enzyme assay (Example 5)
Type: biochemical
measurementConditions: 100 nM enzyme, substrate 1 μM
This section presents molecules with their documented TIME TO 10% HYDROLYSIS (HOURS), u-PA values.
measuredAttribute: TIME TO 10% HYDROLYSIS (HOURS), u-PA (h)

Cc1ccc(S(=O)(=O)NCC(=O)N2CCC[C@H]2C(=O)N[C@@H](CCCNC(=N)N)C(=O)Nc2ccc3c(S(=O)(=O)NCC(C)C)cccc3c2)cc1 ... 0.01
CCCNS(=O)(=O)c1cccc2cc(NC(=O)[C@H](CCCNC(=N)N)NC(=O)[C@H](Cc3ccccc3)NC(=O)[C@@H]3CCCN3C(=O)OC(C)(C)C)ccc12 ... 5
CCN(CC)S(=O)(=O)c1cccc2cc(NC(=O)[C@H](CCCNC(=N)N)NC(=O)CNC(=O)[C@@H](CC(C)C)NS(C)(=O)=O)ccc12 ... 2
Br.Br.CC(C)C[C@@H](N)C(=O)N1CCC[C@H]1C(=O)N[C@@H](CCCNC(=N)N)C(=O)Nc1ccc2c(S(=O)(=O)N3CCCCC3)cccc2c1 ... 1

====

measuredTarget: factor Xa (Homo sapiens)
assayProtocol: Fluorogenic enzyme assay (Example 5)
Format: biochemical
measurementConditions: Table 7
measuredAttribute: kcat /Km, Xa

Br.N=C(N)NCCC[C@H](NC(=O)OCc1ccccc1)C(=O)Nc1ccc2c(S(=O)(=O)N3CCCCCC3)cccc2c1 [(N^α -Z)ArgANSNR1 R2; (CH2)6] ... 293 M⁻¹ s⁻¹
Br.CC(C)CNS(=O)(=O)c1cccc2cc(NC(=O)[C@H](CCCNC(=N)N)NC(=O)OCc3ccccc3)ccc12 [(N^α -Z)ArgANSNR1 R2; H; i-C4 H9] ... 811 M⁻¹ s⁻¹
Br.CCCNS(=O)(=O)c1cccc2cc(NC(=O)[C@H](CCCNC(=N)N)NC(=O)OCc3ccccc3)ccc12 [(N^α -Z)ArgANSNR1 R2; H; C3 H7] ... 593 M⁻¹ s⁻¹
Br.N=C(N)NCCC[C@H](NC(=O)OCc1ccccc1)C(=O)Nc1ccc2c(S(=O)(=O)N3CCOCC3)cccc2c1 [(N^α -Z)ArgANSNR1 R2; morpholyl] ... 625 M⁻¹ s⁻¹
Br.CN(C)S(=O)(=O)c1cccc2cc(NC(=O)[C@H](CCCNC(=N)N)NC(=O)OCc3ccccc3)ccc12 [(N^α -Z)ArgANSNR1 R2; CH3; CH3] ... 1020 M⁻¹ s⁻¹
Br.N=C(N)NCCC[C@H](NC(=O)OCc1ccccc1)C(=O)Nc1ccc2c(S(=O)(=O)NCc3ccccc3)cccc2c1 [(N^α -Z)ArgANSNR1 R2; H; benzyl] ... 198 M⁻¹ s⁻¹

====

Known TIME TO 10% HYDROLYSIS (HOURS), t-PA of a selection of molecules
measuredTarget: tissue plasminogen activator (t-PA) (Homo sapiens)
Sequence (P00750 36-562, species assumed): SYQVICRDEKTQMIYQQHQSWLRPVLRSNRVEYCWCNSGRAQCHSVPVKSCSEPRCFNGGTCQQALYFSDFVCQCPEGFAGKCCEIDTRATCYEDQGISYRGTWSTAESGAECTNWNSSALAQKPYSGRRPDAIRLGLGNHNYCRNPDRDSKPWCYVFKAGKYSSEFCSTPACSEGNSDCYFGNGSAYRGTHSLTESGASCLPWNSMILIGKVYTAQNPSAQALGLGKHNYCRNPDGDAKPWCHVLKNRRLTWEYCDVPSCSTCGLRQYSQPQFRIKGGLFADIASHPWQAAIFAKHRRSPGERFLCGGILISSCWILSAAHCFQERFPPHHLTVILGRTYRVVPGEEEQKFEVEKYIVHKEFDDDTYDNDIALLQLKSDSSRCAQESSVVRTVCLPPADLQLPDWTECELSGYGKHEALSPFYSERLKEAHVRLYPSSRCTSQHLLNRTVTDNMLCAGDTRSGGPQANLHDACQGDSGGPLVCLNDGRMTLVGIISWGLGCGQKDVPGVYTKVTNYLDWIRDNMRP
assayProtocol: Fluorogenic enzyme assay (Example 5)
Assay type: biochemical
measurementConditions: 100 nM enzyme, substrate 1 μM
measuredAttribute: TIME TO 10% HYDROLYSIS (HOURS), t-PA (h)

CCN(CC)S(=O)(=O)c1cccc2cc(NC(=O)[C@H](CCCNC(=N)N)NC(=O)CNC(=O)[C@@H](CC(C)C)NS(C)(=O)=O)ccc12 ... 2
CC(C)C[C@@H](NC(=O)OCc1ccccc1)C(=O)N1CCC[C@H]1C(=O)N[C@@H](CCCNC(=N)N)C(=O)Nc1ccc2c(S(=O)(=O)N3CCCCC3)cccc2c1 ... 1
Cc1ccc(S(=O)(=O)NCC(=O)N2CCC[C@H]2C(=O)N[C@@H](CCCNC(=N)N)C(=O)Nc2ccc3c(S(=O)(=O)NCC(C)C)cccc3c2)cc1 ... 2
Br.Br.CC(C)C[C@@H](N)C(=O)N1CCC[C@H]1C(=O)N[C@@H](CCCNC(=N)N)C(=O)Nc1ccc2c(S(=O)(=O)N3CCCCC3)cccc2c1 ... 1.3
CCCNS(=O)(=O)c1cccc2cc(NC(=O)[C@H](CCCNC(=N)N)NC(=O)[C@H](Cc3ccccc3)NC(=O)[C@@H]3CCCN3C(=O)OC(C)(C)C)ccc12 ... 4
